Tested on: CasDinG WT (Pseudomonas aeruginosa strain 83 (extrachromosomal plasmid))
Assay: fluorescence anisotropy
Conditions: no nucleotide; 5 mM Mg2+; 100 mM Tris pH 8.0, 1 mM TCEP, 5 mM MgCl2, +/- 1 mM AMP-PNP, 10 nM FAM-ssDNA, CasDinG 0-2.5 uM, room temperature
experimental.endpoint: Kd

ordered.residues | study.target | experimental.endpoint | value.observed
TCGTCACCAGTACAAACTACAACGCCTGTAGCATTCCACA [40 nt ssDNA (oligo 7)] | CasDinG WT (Pseudomonas aeruginosa strain 83 (extrachromosomal plasmid)) | Kd | 25 nM
